# key: entry, value: Freeze thaw cycles Accuracy (%)
# experiment: Stability of analytes in rat plasma (auto-sampler, freeze-thaw, room temperature, long-term)
# measurement.conditions: 500 ng/mL, three freeze-thaw cycles

[
  {
    "smi": "O=C(O)[C@H]1O[C@@H](Oc2cc3oc(-c4ccc(O)cc4)cc(=O)c3c(O)c2O)[C@H](O)[C@@H](O)[C@@H]1O",
    "Freeze thaw cycles Accuracy (%)": 112.0
  },
  {
    "smi": "O=c1cc(-c2ccc(O)cc2)oc2c([C@@H]3O[C@H](CO)[C@@H](O)[C@H](O)[C@H]3O)c(O)cc(O)c12",
    "Freeze thaw cycles Accuracy (%)": 108.0
  },
  {
    "smi": "O=C(/C=C/c1ccc(O[C@@H]2O[C@H](CO)[C@@H](O)[C@H](O)[C@H]2O)cc1)c1ccc(O)cc1O",
    "Freeze thaw cycles Accuracy (%)": 91.6
  },
  {
    "smi": "COc1ccc(/C=C/C(=O)O)cc1O",
    "Freeze thaw cycles Accuracy (%)": 95.6
  }
]

====

# experiment: Stability of analytes in rat plasma (auto-sampler, freeze-thaw, room temperature, long-term)
# measurement.conditions: 1.56 ng/mL, −80°C 1 month
Criterion: −80°C for 1month Accuracy (%) meeting or surpassing 90%. Met: 1. Not met: -1.

[
  {
    "compound": "O=C(O)c1ccc(O)c(O)c1",
    "group": -1
  },
  {
    "compound": "O=C(/C=C/c1ccc(O[C@@H]2O[C@H](CO)[C@@H](O)[C@H](O)[C@H]2O)cc1)c1ccc(O)cc1O",
    "group": -1
  },
  {
    "compound": "C[C@]1(OC(=O)/C=C/c2ccccc2)C[C@@H](O)[C@]2(O)C=CO[C@@H](O[C@@H]3O[C@H](CO)[C@@H](O)[C@H](O)[C@H]3O)[C@@H]21 [harpagoside]",
    "group": -1
  },
  {
    "compound": "O=C(O)[C@H]1O[C@@H](Oc2cc(O)c3c(=O)cc(-c4ccc(O)cc4)oc3c2)[C@H](O)[C@@H](O)[C@@H]1O [apigenin-7-O-glucuronide]",
    "group": 1
  },
  {
    "compound": "O=C(O)C=Cc1ccc(O)cc1",
    "group": 1
  },
  {
    "compound": "O=c1c(O[C@@H]2O[C@H](CO)[C@H](O)[C@H](O)[C@H]2O)c(-c2ccc(O)c(O)c2)oc2cc(O)cc(O)c12 [hyperoside]",
    "group": 1
  }
]

====

# key: entry, value: Autosampler for 24 h Accuracy (%)
# experiment: Stability of analytes in rat plasma (auto-sampler, freeze-thaw, room temperature, long-term)
# measurement.conditions: 50 ng/mL, autosampler 24 h

[
  {
    "compound": "O=C(/C=C/c1ccc(O)c(O)c1)O[C@@H]1C[C@](O)(C(=O)O)C[C@@H](O)[C@H]1O",
    "Autosampler for 24 h Accuracy (%)": "97.5%"
  },
  {
    "compound": "CC(C)=CCC[C@](C)(O)[C@H]1CC[C@]2(C)[C@@H]1[C@H](O)C[C@@H]1[C@@]3(C)CC[C@H](O)C(C)(C)[C@@H]3[C@@H](O[C@@H]3O[C@H](CO)[C@@H](O)[C@H](O)[C@H]3O[C@@H]3O[C@H](CO)[C@@H](O)[C@H](O)[C@H]3O)C[C@]12C [ginsenoside Rf]",
    "Autosampler for 24 h Accuracy (%)": "98.9%"
  },
  {
    "compound": "O=C1C[C@@H](c2ccc(O)cc2)Oc2cc(O)cc(O)c21",
    "Autosampler for 24 h Accuracy (%)": "98.3%"
  },
  {
    "compound": "COC(=O)C1=CO[C@@H](O[C@@H]2O[C@H](CO)[C@@H](O)[C@H](O)[C@H]2O)[C@H]2[C@@H]1C(=O)C[C@@H]2C",
    "Autosampler for 24 h Accuracy (%)": "92.5%"
  },
  {
    "compound": "COc1ccc([C@@H]2CC(=O)c3c(O)cc(O[C@@H]4O[C@H](CO[C@@H]5O[C@@H](C)[C@H](O)[C@@H](O)[C@H]5O)[C@@H](O)[C@H](O)[C@H]4O)cc3O2)cc1O",
    "Autosampler for 24 h Accuracy (%)": "100.0%"
  }
]

====

# experiment: Stability of analytes in rat plasma (auto-sampler, freeze-thaw, room temperature, long-term)
# measurement.conditions: −80°C for 1 month, concentration 100 ng/mL
experimental.endpoint: −80°C for 1month Accuracy (%)

[
  {
    "compound": "COc1c(O)cc(O)c2c(=O)cc(-c3ccccc3)oc12",
    "unit.string": "%",
    "quantitative.result": 96.0
  },
  {
    "compound": "CC1(C)[C@@H](O[C@H]2O[C@H](C(=O)O)[C@@H](O)[C@H](O)[C@H]2O[C@@H]2O[C@H](C(=O)O)[C@@H](O)[C@H](O)[C@H]2O)CC[C@]2(C)[C@H]3C(=O)C=C4[C@@H]5C[C@@](C)(C(=O)O)CC[C@]5(C)CC[C@@]4(C)[C@]3(C)CC[C@@H]12",
    "unit.string": "%",
    "quantitative.result": 96.2
  },
  {
    "compound": "COc1c2ccoc2c(OC)c2oc(=O)ccc12",
    "unit.string": "%",
    "quantitative.result": 109.0
  },
  {
    "compound": "CC(=O)O[C@H]1[C@H](O[C@H]2CC[C@]34C[C@]35CC[C@]3(C)[C@@H]([C@@]6(C)CC[C@@H](C(C)(C)O)O6)[C@@H](O)C[C@@]3(C)[C@@H]5C[C@H](O[C@@H]3O[C@H](CO)[C@@H](O)[C@H](O)[C@H]3O)[C@H]4C2(C)C)OC[C@@H](O)[C@@H]1O [astragaloside II(IS)]",
    "unit.string": "%",
    "quantitative.result": 115.0
  }
]

====

# experiment: Pharmacokinetic study in rat plasma after oral administration of QJYQ (UHPLC-sMRM)
# Type: in vivo, Sprague-Dawley rats
# measurement.conditions: male, Sprague-Dawley; rat plasma, oral QJYQ 3.15 g/kg, n = 8, mean ± SD; read-out: MRT (0-∞)
experimental.endpoint: MRT inf (h)

[
  {
    "compound": "O=C(O)C=Cc1ccc(O)cc1 [p-Coumaric acid]",
    "experimental.endpoint": "MRT inf",
    "unit.string": "h",
    "quantitative.result": 3.63
  },
  {
    "compound": "COc1ccc(/C=C/C(=O)O)cc1O [isoferulic acid]",
    "experimental.endpoint": "MRT inf",
    "unit.string": "h",
    "quantitative.result": 5.85
  },
  {
    "compound": "CC1(C)[C@@H](O[C@H]2O[C@H](C(=O)O)[C@@H](O)[C@H](O)[C@H]2O[C@@H]2O[C@H](C(=O)O)[C@@H](O)[C@H](O)[C@H]2O)CC[C@]2(C)[C@H]3C(=O)C=C4[C@@H]5C[C@@](C)(C(=O)O)CC[C@]5(C)CC[C@@]4(C)[C@]3(C)CC[C@@H]12 [glycyrrhizic acid]",
    "experimental.endpoint": "MRT inf",
    "unit.string": "h",
    "quantitative.result": 5.38
  }
]

====

# experiment: Stability of analytes in rat plasma (auto-sampler, freeze-thaw, room temperature, long-term)
# measurement.conditions: 1.56 ng/mL, autosampler 24 h
experimental.endpoint: Autosampler for 24 h Accuracy (%)

[
  {
    "smi": "O=C1C[C@@H](c2ccc(O[C@@H]3O[C@H](CO)[C@@H](O)[C@H](O)[C@H]3O)cc2)Oc2cc(O)ccc21",
    "experimental.endpoint": "Autosampler for 24 h Accuracy (%)",
    "quantitative.result": 84.0
  },
  {
    "smi": "COc1c2c(cc3oc(CO)cc(=O)c13)O[C@H](C(C)(C)O)C2",
    "experimental.endpoint": "Autosampler for 24 h Accuracy (%)",
    "quantitative.result": 102.0
  },
  {
    "smi": "O=c1cc(-c2ccc(O)cc2)oc2c([C@@H]3O[C@H](CO)[C@@H](O)[C@H](O)[C@H]3O)c(O)cc(O)c12",
    "experimental.endpoint": "Autosampler for 24 h Accuracy (%)",
    "quantitative.result": 95.0
  },
  {
    "smi": "O=C(O)C=Cc1ccc(O)cc1",
    "experimental.endpoint": "Autosampler for 24 h Accuracy (%)",
    "quantitative.result": 83.2
  }
]

====

# experiment: Pharmacokinetic study in rat plasma after oral administration of QJYQ (UHPLC-sMRM)
# Type: in vivo, Sprague-Dawley rats
# measurement.conditions: male, Sprague-Dawley, rat, in vivo, po, 3.15 g/kg
experimental.endpoint: AUC(0-inf) (ng·h/mL)

[
  {
    "smi": "O=C1C[C@@H](c2ccc(O[C@@H]3O[C@H](CO)[C@@H](O)[C@H](O)[C@H]3O)cc2)Oc2cc(O)ccc21",
    "quantitative.result": 16.4
  }
]
